Overview of reported EC50 across a group of binders:
ASSAYED_TARGET: T1, GST-INADL PDZ domain 3 fusion protein (human), Q8NI35
T1 chain: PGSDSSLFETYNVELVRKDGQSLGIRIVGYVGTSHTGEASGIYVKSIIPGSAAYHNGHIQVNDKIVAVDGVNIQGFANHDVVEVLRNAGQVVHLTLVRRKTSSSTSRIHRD
METHOD_NOTES: G3 assay titration, immobilised GST-PDZ
No end group written: not given here. *: point of attachment. Biotin = O=C1N[C@H]2[C@H](CS[C@H]2CCCCC(=O)*)N1
EXPERIMENTAL_ENDPOINT: EC50

1) Biotin-YGRKKRRQRRRSRTDRKYQI [Peptide #1839 (biotin-…)] ... 130 nM
2) Biotin-YGRKKRRQRRRARGRRETWV [Peptide #1854 (biotin-…)] ... < 20 nM
3) Biotin-YGRKKRRQRRRARSDRTIIA [Peptide #1830 (biotin-…)] ... < 2000 nM
4) Biotin-YGRKKRRQRRRARGDRYRIV [Peptide #1845 (biotin-…)] ... < 100 nM
